Form field: LVL THP1 HTRF YMIN (one value per entry).
# studyTarget: IRAK4 (Homo sapiens, UniProt Q9NWZ3)
# Construct: endogenous in cells; host or cells: THP-1 cells
# Sequence (Q9NWZ3 1-460): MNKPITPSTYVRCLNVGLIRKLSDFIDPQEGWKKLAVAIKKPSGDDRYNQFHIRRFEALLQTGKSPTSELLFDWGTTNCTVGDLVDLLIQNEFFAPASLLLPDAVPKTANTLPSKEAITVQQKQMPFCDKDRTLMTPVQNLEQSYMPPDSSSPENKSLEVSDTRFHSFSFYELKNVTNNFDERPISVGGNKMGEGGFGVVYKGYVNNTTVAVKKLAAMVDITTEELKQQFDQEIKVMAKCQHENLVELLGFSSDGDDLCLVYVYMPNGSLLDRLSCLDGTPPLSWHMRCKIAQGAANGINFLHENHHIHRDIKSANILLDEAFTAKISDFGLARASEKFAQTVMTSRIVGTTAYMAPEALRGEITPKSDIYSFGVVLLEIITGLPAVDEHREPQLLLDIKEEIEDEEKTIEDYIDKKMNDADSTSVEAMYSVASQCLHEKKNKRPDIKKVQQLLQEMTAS
# assayExplanation: LVL THP1 HTRF (THP1 Homogeneous Time Resolved Fluorescence)
# Assay type: cell-based
# experimentalParameters: THP1 cells, 18 h incubation with compound
Give the value in % but do not write % after it.

Sample records with LVL THP1 HTRF YMIN:
# molecule, studyTarget, LVL THP1 HTRF YMIN [%]
records = [
    ("C[C@H](C#N)Nc1cc(-n2ncc3cc(C#N)cnc32)ncc1-n1cc([C@H]2CC[C@H](CCN3C[C@@H](C)N(c4ccc(N5CCC(=O)NC5=O)cc4)C[C@@H]3C)CC2)nn1 [P-483]", "IRAK4 (Homo sapiens, UniProt Q9NWZ3)", 3.4),
    ("CC[C@@H]1CN(CC[C@H]2CC[C@H](c3cn(-c4cnc(-n5ncc6cc(C#N)c(N)nc65)cc4N[C@H](C)C#N)nn3)CC2)CCN1c1ccc(N2CCC(=O)NC2=O)cc1 [P-447]", "IRAK4 (Homo sapiens, UniProt Q9NWZ3)", 0.8),
    ("C[C@H](C#N)Nc1cc(Nc2ncc(C#N)cc2Cl)ncc1-n1cc([C@H]2CC[C@H](CCN3CCN(c4ccc(N5CCC(=O)NC5=O)cn4)[C@H](C)C3)CC2)nn1 [P-455]", "IRAK4 (Homo sapiens, UniProt Q9NWZ3)", "−5.9"),
    ("Cc1cc(N2CCN(CC[C@H]3CC[C@H](NC(=O)c4cnc(-n5ncc6cc(C#N)c(N)nc65)cc4N[C@H](C)C#N)CC3)C[C@H]2C)ccc1C1CCC(=O)NC1=O (some centres unmarked) [P-172]", "IRAK4 (Homo sapiens, UniProt Q9NWZ3)", 1.1),
]

Please examine the following record next.
Supply recorded LVL THP1 HTRF YMIN for C[C@H](C#N)Nc1cc(-c2ccc3cc(C#N)cnn23)ncc1-n1cc(C2CCC(CCN3CCN(c4ccc([C@@]5(C)CCC(=O)NC5=O)cc4)CC3)CC2)nn1 (some centres unmarked) [P-230] here.
2.8

====

# studyTarget: IRAK4 (Homo sapiens)
# Construct: endogenous in cells
# Sequence (Q9NWZ3 1-460): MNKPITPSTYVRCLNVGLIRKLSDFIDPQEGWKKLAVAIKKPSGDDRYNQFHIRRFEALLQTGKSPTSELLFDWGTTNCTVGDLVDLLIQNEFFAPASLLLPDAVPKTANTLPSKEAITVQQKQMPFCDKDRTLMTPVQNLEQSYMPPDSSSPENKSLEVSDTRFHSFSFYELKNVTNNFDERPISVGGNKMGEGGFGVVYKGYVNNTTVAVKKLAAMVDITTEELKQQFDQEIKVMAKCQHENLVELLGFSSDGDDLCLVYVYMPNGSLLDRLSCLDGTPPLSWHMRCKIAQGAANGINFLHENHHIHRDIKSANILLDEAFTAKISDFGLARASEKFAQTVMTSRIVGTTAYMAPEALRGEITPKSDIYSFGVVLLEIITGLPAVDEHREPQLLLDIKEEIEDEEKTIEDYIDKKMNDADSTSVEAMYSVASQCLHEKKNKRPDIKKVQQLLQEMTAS
# assayExplanation: ALE THP1 HTRF (Advanced Lipoxidation End Product THP1 Homogeneous Time Resolved Fluorescence)
# experimentalParameters: THP1 cells
experimentalReadout: pEC50
// scale note: pEC50 = -log10(conc_M); give the bare number

Reference set, count: 5
# compound, pEC50
data = [
    ("N#Cc1cnc2c(cnn2-c2cc(NC3CC3)c(C(=O)NC3CCC(CCN4CCN(c5ccc(C6CCC(=O)NC6=O)c(Cl)c5)CC4)CC3)cn2)c1 (centres unmarked)", 7.46),
    ("CC1(Nc2cc(-n3ncc4cc(C#N)c(N)nc43)ncc2-n2cc([C@H]3CC[C@H](CCN4CCN(c5ccc(C6CCC(=O)NC6=O)cc5)CC4)CC3)nn2)CC1 (some centres unmarked)", 8.70),
    ("N#Cc1cnc2c(cnn2-c2cc(NCC3CCCO3)c(C(=O)N[C@H]3CC[C@H](CCN4CCN(c5ccc(C6CCC(=O)NC6=O)cc5)CC4)CC3)cn2)c1 (some centres unmarked)", 7.13),
    ("N#Cc1cnc2c(cnn2-c2cc(NC3CC3)c(-n3cc([C@H]4CC[C@H](CCN5CCN(c6ccc(C7CCC(=O)NC7=O)cc6)CC5)CC4)nn3)cn2)c1 (some centres unmarked)", 7.66),
    ("N#Cc1cnn2c(-c3cc(NC4CC4)c(C(=O)N[C@H]4CC[C@H](CCN5CCN(c6ccc(C7CCC(=O)NC7=O)cc6)CC5)CC4)cn3)cnc2c1 (some centres unmarked)", 7.21),
]

Proceeding to the next compound to report its pEC50.
Give the value of pEC50 reported for the following: N#Cc1cnc2c(cnn2-c2cc(NC3CC3)c(C(=O)N[C@H]3CC[C@H](CCN4CC5(C4)CN(c4ccc(C6CCC(=O)NC6=O)cc4)C5)CC3)cn2)c1 (some centres unmarked)
7.34

====

// reported DC50 per item
# studyTarget: IRAK4 (Homo sapiens)
# Construct: endogenous in cells; host or cells: THP-1 cells
# assayExplanation: LVL THP1 HTRF (THP1 Homogeneous Time Resolved Fluorescence)
# Assay type: cell-based
# experimentalParameters: THP1 cells, 18 h incubation with compound, read-out: LVL THP1 HTRF EC50
Please respond with the number in nM and leave the unit unwritten.

Recorded results for 4 compounds are shown here.
# compound, DC50, nM
data = [
    ("Cc1cc(N2CC[C@H]3[C@@H]2CCN3CC[C@H]2CC[C@H](NC(=O)c3cnc(-n4ncc5cc(C#N)cnc54)cc3N[C@H](C)C#N)CC2)ccc1N1CCC(=O)NC1=O [P-490]", 1000),
    ("C[C@H](C#N)Nc1cc(-n2ncc3cc(C#N)cnc32)ncc1C(=O)N[C@H]1CC[C@H](CCN2C[C@H]3C[C@@H](C2)N3c2ccc(C3CCC(=O)NC3=O)cc2)CC1 (some centres unmarked)", 702),
    ("C[C@H](C#N)Nc1cc(-n2ncc3cc(C#N)cnc32)ncc1-n1cc(C2CCC(CCN3[C@H](C)CN(c4ccc(C5CCC(=O)NC5=O)cc4)C[C@H]3C)CC2)nn1 (some centres unmarked)", 5),
    ("Cc1cc(N2CCN(CC[C@H]3CC[C@H](NC(=O)c4cnc(-n5ncc6cc(C#N)c(N)nc65)cc4N[C@H](C)C#N)CC3)C[C@H]2C)ccc1C1CCC(=O)NC1=O (some centres unmarked) [P-171]", 23),
]

Provide measured DC50 on IRAK4 (Homo sapiens) for C[C@H](C#N)Nc1cc(-n2ncc3cc(C#N)cnc32)ncc1-n1cc([C@H]2CC[C@H](CCN3CCC(c4ccc([C@@]5(F)CCC(=O)NC5=O)cc4)CC3)CC2)nn1 (single isomer, unassigned) [P-338] please.
501

====

In this section we review reported DC50 values for a set of molecules.
# studyTarget: IRAK4 (Homo sapiens)
# Construct: endogenous in cells; host or cells: THP-1 cells
# Sequence (Q9NWZ3 1-460): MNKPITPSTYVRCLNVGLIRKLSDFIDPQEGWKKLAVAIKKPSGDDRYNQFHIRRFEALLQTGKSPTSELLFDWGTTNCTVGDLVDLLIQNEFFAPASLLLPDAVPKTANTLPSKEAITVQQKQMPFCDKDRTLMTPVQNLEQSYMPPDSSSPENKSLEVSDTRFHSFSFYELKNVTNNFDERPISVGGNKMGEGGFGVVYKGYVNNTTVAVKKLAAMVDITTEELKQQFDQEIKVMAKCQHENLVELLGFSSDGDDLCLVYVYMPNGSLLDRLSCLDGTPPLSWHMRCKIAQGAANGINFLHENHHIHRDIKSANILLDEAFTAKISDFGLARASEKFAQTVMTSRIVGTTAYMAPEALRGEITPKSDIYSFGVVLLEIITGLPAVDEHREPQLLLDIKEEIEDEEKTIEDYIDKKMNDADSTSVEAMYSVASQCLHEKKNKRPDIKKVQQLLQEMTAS
# assayExplanation: LVL THP1 HTRF (THP1 Homogeneous Time Resolved Fluorescence)
# Assay type: cell-based
# experimentalParameters: THP1 cells, 18 h incubation with compound, read-out: LVL THP1 HTRF EC50
// units = nM; emit number, no label

The examples below pair each entry with its known result.
# molecule, DC50 / nM
rows = [
    ("C[C@H](C#N)Nc1cc(Nc2ncc(C#N)cc2Cl)ncc1-n1cc([C@H]2CC[C@H](CCN3CCN(c4ccc(N5CCC(=O)NC5=O)cc4)CC3)CC2)nn1 [P-384]", 45.4),
    ("C[C@H](C#N)Nc1cc(-n2ncc3cc(C#N)c(N)nc32)ncc1-n1cc([C@H]2CC[C@H](CCN3CCN(c4ccc([C@@]5(C)CCC(=O)NC5=O)nn4)CC3)CC2)nn1 (single isomer, unassigned) [P-309]", 1000),
    ("C[C@H](C#N)Nc1cc(-n2ncc3cc(C#N)cnc32)ncc1-n1cc([C@H]2CC[C@H](CCN3CC=C(c4ccc(N5CCC(=O)NC5=O)cc4)CC3)CC2)nn1 [P-330]", 17.4),
    ("C[C@H](C#N)Nc1cc(-n2ncc3cc(C#N)cnc32)ncc1-n1cc([C@H]2CC[C@H](CCN3CCN(c4ccc(N5CCC(=O)NC5=O)c(Cl)c4)CC3)CC2)nn1 [P-364]", 1.8),
    ("C[C@H](C#N)Nc1cc(-n2ncc3cc(C#N)cnc32)ncc1-n1cc(C[C@H]2CC[C@H](CN3CCN(c4ccc(C5CCC(=O)NC5=O)cc4)CC3)CC2)nn1 (stereo partly shown) [P-322]", 16.5),
    ("C[C@H](C#N)Nc1cc(-n2ncc3cc(C#N)c(N)nc32)ncc1-n1cc([C@H]2CC[C@H](CCN3CCN(c4ccc([C@@]5(C)CCC(=O)NC5=O)nc4)CC3)CC2)nn1 (single isomer, unassigned) [P-307]", 6.6),
    ("C[C@H](C#N)Nc1cc(-n2ncc3cncnc32)ncc1-n1cc([C@H]2CC[C@H](CCN3CCN(c4ccc(C5CCC(=O)NC5=O)cc4)CC3)CC2)nn1 (stereo partly shown) [P-218]", 6),
    ("C[C@H](C#N)Nc1cc(-n2ncc3cc(C#N)cnc32)ncc1-n1cc([C@H]2CC[C@H](CCN3CCC[C@@H]4[C@H]3CCCN4c3ccc([C@@]4(C)CCC(=O)NC4=O)cc3)CC2)nn1 (single isomer, unassigned) [P-414]", 2350),
]

Could you please provide reported DC50 for C[C@H](C#N)Nc1cc(-n2ncc3cc(C#N)cnc32)ncc1-n1cc([C@H]2CC[C@H](CCN3CCC(n4cc(C5CCC(=O)NC5=O)cn4)CC3)CC2)nn1 (stereo partly shown) [P-346] ? Thanks!
92.8

Supply DC50 value. Item: C[C@H](C#N)Nc1cc(-n2ncc3cc(C#N)cnc32)ncc1C(=O)N[C@H]1CC[C@H](CCN2CC3COCC(C2)N3c2ccc(C3CCC(=O)NC3=O)cc2)CC1 (stereo partly shown) [P-194]
4040
